# pIC50 values compiled below
measured_target: WRN [UniPro: Q14191 (WRN_HUMAN), N500-C946] (Homo sapiens (Human), UniProt Q14191)
Sequence (Q14191 500-946): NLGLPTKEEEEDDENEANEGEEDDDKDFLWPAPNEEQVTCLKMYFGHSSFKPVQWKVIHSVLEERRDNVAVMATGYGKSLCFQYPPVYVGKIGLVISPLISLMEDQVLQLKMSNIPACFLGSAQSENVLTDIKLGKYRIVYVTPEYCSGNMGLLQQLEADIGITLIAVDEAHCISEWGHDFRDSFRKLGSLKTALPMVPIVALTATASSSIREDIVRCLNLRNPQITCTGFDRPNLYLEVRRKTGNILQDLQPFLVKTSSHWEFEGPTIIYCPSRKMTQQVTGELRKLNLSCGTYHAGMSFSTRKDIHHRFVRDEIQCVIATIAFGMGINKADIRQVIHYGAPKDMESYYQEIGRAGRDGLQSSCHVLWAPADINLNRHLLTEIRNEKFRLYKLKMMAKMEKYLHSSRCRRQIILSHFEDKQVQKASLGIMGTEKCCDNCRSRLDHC
experiment_summary: WRN ATPase assay (ADP-Glo)
Type: biochemical
particulars: WRN enzymatic activity assay
pIC50: −log10 of the molar value.

compound_string | measured_target | pIC50
CCc1c(N2CCN(C(=O)CNS(C)(=O)=O)CC2)c(=O)n2nc(C3=CCOCC3)nc2n1CC(=O)Nc1ccc(C(F)(F)F)cc1Cl | WRN [UniPro: Q14191 (WRN_HUMAN), N500-C946] (Homo sapiens (Human), UniProt Q14191) | 6.00 to 7.00
CCc1c(N2CCN(C(=O)CNC(=O)c3cc(NC)ccc3F)CC2)c(=O)n2nc(C3=CCOCC3)nc2n1CC(=O)Nc1ccc(C(F)(F)F)cc1Cl | WRN [UniPro: Q14191 (WRN_HUMAN), N500-C946] (Homo sapiens (Human), UniProt Q14191) | > 7.00
CCNC(=O)NCC(=O)N1CCN(c2c(CC)n(CC(=O)Nc3ccc(C(F)(F)F)cc3Cl)c3nc(C4=CCOCC4)nn3c2=O)CC1 | WRN [UniPro: Q14191 (WRN_HUMAN), N500-C946] (Homo sapiens (Human), UniProt Q14191) | > 7.00
CCc1c(N2CCN(C(=O)CNC(=O)c3ccccc3)CC2)c(=O)n2nc(C(C)(C)C)nc2n1CC(=O)Nc1ccc(C(F)(F)F)cc1Cl | WRN [UniPro: Q14191 (WRN_HUMAN), N500-C946] (Homo sapiens (Human), UniProt Q14191) | 6.00 to 7.00
CCc1c(N2CCN(C(=O)c3nccn(C)c3=O)CC2)c(=O)n2nc(C3=CCOCC3)nc2n1CC(=O)Nc1ccc(C(F)(F)F)cc1Cl | WRN [UniPro: Q14191 (WRN_HUMAN), N500-C946] (Homo sapiens (Human), UniProt Q14191) | 6.00 to 7.00
CCc1c(N2CCN(C(=O)c3nnccc3O)CC2)c(=O)n2nc(C3=CCOCC3)nc2n1CC(=O)Nc1ccc(C(F)(F)F)cc1Cl | WRN [UniPro: Q14191 (WRN_HUMAN), N500-C946] (Homo sapiens (Human), UniProt Q14191) | > 7.00
CCc1c(N2CCN(C(=O)C(=O)Nc3nccs3)CC2)c(=O)n2nc(C3=CCOCC3)nc2n1CC(=O)Nc1ccc(C(F)(F)F)cc1F | WRN [UniPro: Q14191 (WRN_HUMAN), N500-C946] (Homo sapiens (Human), UniProt Q14191) | > 7.00
CCc1c(N2CCN(C(=O)CNC(=O)c3cccc(N)c3)CC2)c(=O)n2nc(C3=CCOCC3)nc2n1CC(=O)Nc1ccc(C(F)(F)F)cc1Cl | WRN [UniPro: Q14191 (WRN_HUMAN), N500-C946] (Homo sapiens (Human), UniProt Q14191) | > 7.00
CCc1c(N2CCN(C(=O)CNC(=O)c3ccccc3)CC2)c(=O)n2nc(-c3cnc4c(c3)CCCO4)nc2n1CC(=O)Nc1ccc(C(F)(F)F)cc1Cl | WRN [UniPro: Q14191 (WRN_HUMAN), N500-C946] (Homo sapiens (Human), UniProt Q14191) | 6.00 to 7.00
CCc1c(N2CCN(C(=O)CNC(=O)c3ccccc3)CC2)c(=O)n2nc(C3CC3)nc2n1CC(=O)Nc1ccc(C(F)(F)F)cc1Cl | WRN [UniPro: Q14191 (WRN_HUMAN), N500-C946] (Homo sapiens (Human), UniProt Q14191) | 6.00 to 7.00
CCc1c(N2CCN(C(=O)C(=O)Nc3cc(C)no3)CC2)c(=O)n2nc(C3=CCOCC3)nc2n1CC(=O)Nc1ccc(C(F)(F)F)cc1Cl | WRN [UniPro: Q14191 (WRN_HUMAN), N500-C946] (Homo sapiens (Human), UniProt Q14191) | > 7.00
CCc1c(N2CCN(C(=O)CNC(=O)c3c(Cl)cccc3Cl)CC2)c(=O)n2nc(C3=CCOCC3)nc2n1CC(=O)Nc1ccc(C(F)(F)F)cc1Cl | WRN [UniPro: Q14191 (WRN_HUMAN), N500-C946] (Homo sapiens (Human), UniProt Q14191) | 6.00 to 7.00
CCc1c(N2CCN(C(=O)CNC(=O)c3ccccn3)CC2)c(=O)n2nc(C3=CCOCC3)nc2n1CC(=O)Nc1ccc(C(F)(F)F)cc1Cl | WRN [UniPro: Q14191 (WRN_HUMAN), N500-C946] (Homo sapiens (Human), UniProt Q14191) | > 7.00
CCc1c(N2CCN(C(=O)c3cnc4sc(Br)cc4c3O)CC2)c(=O)n2nc(C3=CCOCC3)nc2n1CC(=O)Nc1ccc(C(F)(F)F)cc1F | WRN [UniPro: Q14191 (WRN_HUMAN), N500-C946] (Homo sapiens (Human), UniProt Q14191) | > 7.00
CCc1c(N2CCN(C(=O)CNC(=O)c3ccccc3)CC2)c(=O)n2nc(C3=CCOCC3)nc2n1CC(=O)Nc1ccc(C(F)(F)F)cc1Cl | WRN [UniPro: Q14191 (WRN_HUMAN), N500-C946] (Homo sapiens (Human), UniProt Q14191) | > 7.00
CCc1c(N2CCN(C(=O)C(=O)Nc3ccncn3)CC2)c(=O)n2nc(C3=CCOCC3)nc2n1CC(=O)Nc1ccc(C(F)(F)F)cc1F | WRN [UniPro: Q14191 (WRN_HUMAN), N500-C946] (Homo sapiens (Human), UniProt Q14191) | 6.00 to 7.00
CCc1c(N2CCN(C(=O)CNC(=O)[C@H]3CCCO3)CC2)c(=O)n2nc(C3=CCOCC3)nc2n1CC(=O)Nc1ccc(C(F)(F)F)cc1Cl | WRN [UniPro: Q14191 (WRN_HUMAN), N500-C946] (Homo sapiens (Human), UniProt Q14191) | 6.00 to 7.00
CCc1c(N2CCN(C(=O)CNC(=O)c3ccon3)CC2)c(=O)n2nc(C3=CCOCC3)nc2n1CC(=O)Nc1ccc(C(F)(F)F)cc1Cl | WRN [UniPro: Q14191 (WRN_HUMAN), N500-C946] (Homo sapiens (Human), UniProt Q14191) | > 7.00
CCc1c(N2CCN(C(=O)c3cnc4c(ccn4C)c3O)CC2)c(=O)n2nc(C3=CCOCC3)nc2n1CC(=O)Nc1ccc(C(F)(F)F)cc1Cl | WRN [UniPro: Q14191 (WRN_HUMAN), N500-C946] (Homo sapiens (Human), UniProt Q14191) | > 7.00
CCc1c(N2CCN(C(=O)CNC(=O)Cc3ccccc3F)CC2)c(=O)n2nc(C3=CCOCC3)nc2n1CC(=O)Nc1ccc(C(F)(F)F)cc1Cl | WRN [UniPro: Q14191 (WRN_HUMAN), N500-C946] (Homo sapiens (Human), UniProt Q14191) | > 7.00
CCc1c(N2CCN(C(=O)CNC(=O)c3cc(F)cc(NC)c3)CC2)c(=O)n2nc(N3CCOCC3)nc2n1CC(=O)Nc1ccc(C(F)(F)F)cc1F | WRN [UniPro: Q14191 (WRN_HUMAN), N500-C946] (Homo sapiens (Human), UniProt Q14191) | > 7.00
CCc1c(N2CCN(C(=O)c3nnc(C(F)(F)F)[nH]3)CC2)c(=O)n2nc(C3=CCOCC3)nc2n1CC(=O)Nc1ccc(C(F)(F)F)cc1F | WRN [UniPro: Q14191 (WRN_HUMAN), N500-C946] (Homo sapiens (Human), UniProt Q14191) | > 7.00
CCc1c(N2CCN(C(=O)CNC(=O)c3nc(N)ccc3F)CC2)c(=O)n2nc(C3=CCOCC3)nc2n1CC(=O)Nc1ccc(C(F)(F)F)cc1Cl | WRN [UniPro: Q14191 (WRN_HUMAN), N500-C946] (Homo sapiens (Human), UniProt Q14191) | > 7.00
CCc1c(N2CCN(C(=O)c3cnn4cncc4c3O)CC2)c(=O)n2nc(C3=CCOCC3)nc2n1CC(=O)Nc1ccc(C(F)(F)F)cc1Cl | WRN [UniPro: Q14191 (WRN_HUMAN), N500-C946] (Homo sapiens (Human), UniProt Q14191) | > 7.00
